# maps each entry to its growth inhibition
- assay_overview: NCI Yeast Anticancer Drug Screen. Data for the mec2-1 strain (AID 157)
- run_parameters: S. cerevisiae mec2-1 strain, at 50.0 µM, active compounds read high
The panel holds about 79,000 compounds, 15% with a hit somewhere; the sample as a whole holds those more often.
Please state the figure in %; there is no need to write the unit.

Answered examples (5):
INSERT INTO results (molecule, property_name, observed_measurement) VALUES
  ('CCCNC(=O)c1cccc2c1-c1ccccc1C2=O', 'growth inhibition', 3.85),
  ('CCC(CCc1ccc(OC)c(OC)c1)C(=O)O (stereo unspecified)', 'growth inhibition', 12.2),
  ('NCCCn1cnc2c(N)ncnc21', 'growth inhibition', -1.55),
  ('N#CCCC(=O)c1ccc[nH]1', 'growth inhibition', 10.8),
  ('CCCCCCCCNC(=O)CBr', 'growth inhibition', 9.85);

Q. Using the record for O=C(COc1c(Cl)cc(Cl)c2ccccc12)NC1c2ccccc2Oc2ccccc21 , state its measured growth inhibition.
A. 0.4

Q. Using the record for COC1/C=C\OC2(C)Oc3c(C)c(O)c4c(O)c(c(/C=N\NC(=O)CC(=O)N/N=C/c5c6c(O)c7c(O)c(C)c8c(c7c5O)C(=O)C(C)(O/C=C/C(OC)C(C)C(OC(C)=O)C(C)C(O)C(C)C(O)C(C)/C=C/C=C(C)C(=O)N6)O8)c(O)c4c3C2=O)NC(=O)/C(C)=C\C=C/C(C)C(O)C(C)C(O)C(C)C(OC(C)=O)C1C (stereo unspecified) , state its measured growth inhibition.
A. 6.3

Q. Using the record for CCC(C)CCC(=O)OCC(=O)c1ccc(-c2ccccc2)cc1 (stereo unspecified) , state its measured growth inhibition.
A. -18.9

Q. Using the record for O=[N+]([O-])c1ccc2c(c1)C(=Nc1ccc(Cl)cc1)c1ccccc1-2 , state its measured growth inhibition.
A. -8.6

Q. Using the record for C/C=C/C(C/C=C(\C)CO[Si](C)(C)C(C)(C)C)O[Si](C)(C)C(C)(C)C (stereo unspecified) , state its measured growth inhibition.
A. -14.5

---

- assay_overview: NCI Yeast Anticancer Drug Screen. Data for the bub3 strain (AID 167)
- run_parameters: S. cerevisiae bub3 mutant strain, at 50.0 µM
The panel holds about 79,000 compounds, 15% with a hit somewhere; the sample as a whole holds those more often. Calls of active or inactive are those of the source. Cut-off read from the data, not from the text of the source: active = growth inhibition above about 70%; inactive = the rest.
Log the outcome using a class from class 1 = active, class 0 = inactive

Q. // return assay outcome for O=[N+]([O-])c1sc2ccccc2c1Br
A. class 1

Q. // return assay outcome for COc1ccc(CC2CC(Cc3ccc(OC)c(OC)c3)C(=O)O2)cc1OC (centres undefined)
A. class 0

Q. // return assay outcome for CS/C(=N/N=C/c1ccc2ccccc2n1)SS/C(=N/N=C\c1ccc2ccccc2n1)SC
A. class 0

Q. // return assay outcome for CCOC(=O)C1=C(SC)SC(C(=O)OCC)C2C=C(C)C=CN12 (centres undefined)
A. class 0

Q. // return assay outcome for CC(C)(C)CC(CC(C)(C)C)C(=O)O
A. class 0

Q. // return assay outcome for COC(=O)c1[nH]c(C)c(C(=O)OC)c1C
A. class 0

Q. // return assay outcome for C/C(=C/C(C)C)C(C)(C#N)C(N)=O (centres undefined)
A. class 0

Q. // return assay outcome for Nc1nc2c(nnn2C2OC(CO)C(O)C2O)c(=O)[nH]1 (centres undefined)
A. class 0

Q. // return assay outcome for N#CCC(=O)NCc1ccncc1
A. class 0

Q. // return assay outcome for OCc1ccc(F)cc1CO
A. class 0

Q. // return assay outcome for O=C(c1ccc2c(c1)C(=O)OC2=O)c1ccc2c(c1)C(=O)OC2=O
A. class 0
